- Substrate: C=CC1=C(C)/C(=C/c2[nH]c(/C=C3N=C(/C=C4\NC(=O)C(C)=C4C=C)C(C)=C\3CCC(=O)O)c(CCC(=O)O)c2C)NC1=O
- Assay Text: steady-state kinetics, A450 bilirubin formation
- Type: biochemical, Synechocystis sp. PCC 6803
- Measurement Setup: 100 μM NADPH, 100 mM citrate pH 5.75
Some proteins, each annotated with its measured kcat.

Protein | kcat / s⁻¹
Syn BVR (Synechocystis sp. PCC 6803 substr. Kazusa; R185A) (protein, full length, 328 residues; N-terminal His6 tag (pET15b), E. coli C41(DE3); tag cut with thrombin for crystals) MSENFAVATPVRVGIVGTGYAAQRRAEVFRGDRRSQLVSFWGNSEANTAKFADTFGVRPQQSWQALINDPEIDLVLIATINQLHGAIAEAALQAGKHVVLEYPLALTYAMGKKLQQLAREKGKLLHVEHIELLGGVHQAIRQNLGKIGEVFYARYSTIMGQNPAPQRWTYHHQQFGFPLVAALSAISRFTDLFGTVQQVDAQCRFWDQPNPEYFRACLATAYLQFNNGLKAEVIYGKGEVFHQNERIFTLHGDRGTLIFVGETGRLIQGQTETEITVGSRRGLFRQDTEAVLDYLTTGKPLYVDLEASLYALEVADLCAQACGYKVEN | 0.7
Syn BVR (Synechocystis sp. PCC 6803 substr. Kazusa; R185K) (protein, full length, 328 residues; N-terminal His6 tag (pET15b), E. coli C41(DE3); tag cut with thrombin for crystals) MSENFAVATPVRVGIVGTGYAAQRRAEVFRGDRRSQLVSFWGNSEANTAKFADTFGVRPQQSWQALINDPEIDLVLIATINQLHGAIAEAALQAGKHVVLEYPLALTYAMGKKLQQLAREKGKLLHVEHIELLGGVHQAIRQNLGKIGEVFYARYSTIMGQNPAPQRWTYHHQQFGFPLVAALSKISRFTDLFGTVQQVDAQCRFWDQPNPEYFRACLATAYLQFNNGLKAEVIYGKGEVFHQNERIFTLHGDRGTLIFVGETGRLIQGQTETEITVGSRRGLFRQDTEAVLDYLTTGKPLYVDLEASLYALEVADLCAQACGYKVEN | 0.9
Syn BVR (Synechocystis sp. PCC 6803 substr. Kazusa; R246A) (protein, full length, 328 residues; N-terminal His6 tag (pET15b), E. coli C41(DE3); tag cut with thrombin for crystals) MSENFAVATPVRVGIVGTGYAAQRRAEVFRGDRRSQLVSFWGNSEANTAKFADTFGVRPQQSWQALINDPEIDLVLIATINQLHGAIAEAALQAGKHVVLEYPLALTYAMGKKLQQLAREKGKLLHVEHIELLGGVHQAIRQNLGKIGEVFYARYSTIMGQNPAPQRWTYHHQQFGFPLVAALSRISRFTDLFGTVQQVDAQCRFWDQPNPEYFRACLATAYLQFNNGLKAEVIYGKGEVFHQNEAIFTLHGDRGTLIFVGETGRLIQGQTETEITVGSRRGLFRQDTEAVLDYLTTGKPLYVDLEASLYALEVADLCAQACGYKVEN | 11
Syn BVR (Synechocystis sp. PCC 6803 substr. Kazusa; Y102F) (protein, full length, 328 residues; N-terminal His6 tag (pET15b), E. coli C41(DE3); tag cut with thrombin for crystals) MSENFAVATPVRVGIVGTGYAAQRRAEVFRGDRRSQLVSFWGNSEANTAKFADTFGVRPQQSWQALINDPEIDLVLIATINQLHGAIAEAALQAGKHVVLEFPLALTYAMGKKLQQLAREKGKLLHVEHIELLGGVHQAIRQNLGKIGEVFYARYSTIMGQNPAPQRWTYHHQQFGFPLVAALSRISRFTDLFGTVQQVDAQCRFWDQPNPEYFRACLATAYLQFNNGLKAEVIYGKGEVFHQNERIFTLHGDRGTLIFVGETGRLIQGQTETEITVGSRRGLFRQDTEAVLDYLTTGKPLYVDLEASLYALEVADLCAQACGYKVEN | 2.7
Syn BVR (Synechocystis sp. PCC 6803 substr. Kazusa; T169A) (protein, full length, 328 residues; N-terminal His6 tag (pET15b), E. coli C41(DE3); tag cut with thrombin for crystals) MSENFAVATPVRVGIVGTGYAAQRRAEVFRGDRRSQLVSFWGNSEANTAKFADTFGVRPQQSWQALINDPEIDLVLIATINQLHGAIAEAALQAGKHVVLEYPLALTYAMGKKLQQLAREKGKLLHVEHIELLGGVHQAIRQNLGKIGEVFYARYSTIMGQNPAPQRWAYHHQQFGFPLVAALSRISRFTDLFGTVQQVDAQCRFWDQPNPEYFRACLATAYLQFNNGLKAEVIYGKGEVFHQNERIFTLHGDRGTLIFVGETGRLIQGQTETEITVGSRRGLFRQDTEAVLDYLTTGKPLYVDLEASLYALEVADLCAQACGYKVEN | 13.1
